# target.desc: T1, recombinant human full-length TDP-43 (TAR DNA-binding protein 43), soluble (human, UniProt Q13148 1-414)
# T1 construct: Used on Luminex beads, coated on ELISA plates, and immobilized or injected in SPR; also called FL TDP-43; TDP-43 protein
# run.description: SPR 8K, immobilized soluble TDP-43; IgG1
property.measured: kon (M⁻¹ s⁻¹)
Numeric answer only, unit M⁻¹ s⁻¹ assumed.

binder	measurement
hACI-7069-633B12-Ab1_H16L14 (IgG1) (antibody, V domains shown, Human IgG1 / kappa) VH: EVQLVQSGAEVKKPGASVKVSCKASGFTFTEYSMHWVRQAPGQRLEWMGGINPGNAGTSYNQKFKGRVTITVDTSASTAYMELSSLRSEDTAVYYCARESWGQGTTVTVSS VL: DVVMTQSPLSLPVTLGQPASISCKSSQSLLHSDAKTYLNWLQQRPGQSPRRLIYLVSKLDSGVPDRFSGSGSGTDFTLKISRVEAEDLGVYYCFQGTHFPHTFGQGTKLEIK	47000
hACI-7069-633B12-Ab1_H20L19 (IgG1) (antibody, V domains shown, Human IgG1 / kappa) VH: EVQLVQSGAEVKKPGASVKVSCKTSGFTFTEYSMHWVRQAPGQRLEWIGGINPGNAGTSYNQKFKGRVTITVDTSASTAYMELSSLRSEDTAVYYCARESWGQGTTVTVSS VL: DVVMTQSPLSLPVTLGQPASISCKSSQSLLHSDAKTYLNWLQQRPGQSPKRLIYLVSKLDSRVPDRFSGSGSGTDFTLKISRVEAEDLGVYYCFQGTHFPHTFGQGTKLEIK	47000
hACI-7069-633B12-Ab1_H15L18 (IgG1) (antibody, V domains shown, Human IgG1 / kappa) VH: QVQLVQSGAEVKKPGASVKVSCKASGFTFTEYSMHWVRQAPGQRLEWMGGINPGNAGTSYNQKFKGRVTITVDTSASTAYMELSSLRSEDTAVYYCARESWGQGTTVTVSS VL: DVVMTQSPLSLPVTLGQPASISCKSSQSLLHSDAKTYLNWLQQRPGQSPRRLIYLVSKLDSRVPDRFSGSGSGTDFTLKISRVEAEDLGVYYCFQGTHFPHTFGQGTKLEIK	74800
hACI-7069-633B12-Ab1_H23L20 (IgG1) (antibody, V domains shown, Human IgG1 / kappa) VH: QVQLVQSGAEVKKPGASVKVSCKTSGFTFTEYSMHWVRQAPGQRLEWIGGINPGNGGTSYNQKFKGRVTITVDTSASTAYMELSSLRSEDTAVYYCARESWGQGTTVTVSS VL: DVVMTQSPLSLPVTLGQPASISCKSSQSLLHSDGKTYLNWLQQRPGQSPRRLIYLVSKLDSRVPDRFSGSGSGTDFTLKISRVEAEDLGVYYCWQGTHFPHTFGQGTKLEIK	44000

Here is another binder to look at.
query: kon for hACI-7069-633B12-Ab1_H19L18 (IgG1 isotype) (antibody, V domains shown, Human IgG1 / kappa; also called hACI-7069-633B12-Ab1_H19L18 (hIgG1 isotype)) VH: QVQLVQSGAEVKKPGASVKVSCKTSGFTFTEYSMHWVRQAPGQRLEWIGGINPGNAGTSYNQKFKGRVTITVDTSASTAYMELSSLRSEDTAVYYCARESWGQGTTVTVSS VL: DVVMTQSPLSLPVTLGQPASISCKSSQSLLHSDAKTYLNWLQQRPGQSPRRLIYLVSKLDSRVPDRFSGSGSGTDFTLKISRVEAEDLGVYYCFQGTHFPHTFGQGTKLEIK ?
result: 48000

Where do these numbers come from? They come from patent US20230322908A1.
